test system: PPARg:RXRa (NR concentration 180 nM, RXRa partner concentration 90 nM); assay: PBM binding z-score (relative to random genomic background probes); higher = stronger binding; sequences stand for … in GC…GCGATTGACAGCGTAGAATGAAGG
quantity-name: PBM binding z-score

>>> reported_measurement("CCTTGCAGGCCAATCTGGGTCACTCAAGGCTTGA")
2.29
>>> reported_measurement("TTACCAAGGTGAGCTGATGTCGTTGATCCAACTC")
0.146
>>> reported_measurement("GTACCGAGGTGAATAGGTCGTTGATGAGTAGGCG")
1.86
>>> reported_measurement("TTACCAAGGTGAAAGGTCGTTAATGCACGCCTTG")
8.59
>>> reported_measurement("CGTCAAAGTTCAACGTAACGTAACAGAAAGCAGC")
4.58
>>> reported_measurement("AGTCAAAGTTCAGGACGAGGTAACGTAGAGCACG")
4.68

----------
Recorded measurements of PBM binding z-score, one per entry
tested on: LXRb homodimer (NR concentration 270 nM); test: PBM binding z-score (relative to random genomic background probes); higher = stronger binding; sequences stand for … in GC…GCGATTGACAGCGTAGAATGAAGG
quantity-name: PBM binding z-score

>>> reported_measurement("ATCTCTAGGTAAAAGTTCGGTGAATCCCGAGGAT")
0.757
>>> reported_measurement("GCTCGGAGTACAAGGTCAGAGCTTTGTCCGTAGA")
-0.761
>>> reported_measurement("CCTAGCAGGCCAGAGTCACTCAAGCATTTCGCTT")
-1.47
>>> reported_measurement("AGAACGTGGGCACGCTGAGTTGATAGCAGAGTAG")
-1.22
>>> reported_measurement("TCTGTTAGGTCAGTTGGTCAGCTAACGAGCTGCC")
2.71
>>> reported_measurement("ATCGAAAGGTCGAAGGTGAGTATCCCCACCCGAA")
0.489
>>> reported_measurement("TAGCCTAGGTCATGGGCCAGCATACCACGCGAAC")
-0.463
>>> reported_measurement("ACTATTAGTTGAGACGAGGGTAACCGATAGGTTG")
0.187
>>> reported_measurement("ACTGACAGGTGATGAAGGTAACTCAGGCTATCAT")
-0.408
>>> reported_measurement("ATCTCTAGGTAGGACTCAGTTCAGTGAAGAACGC")
1.09
>>> reported_measurement("CGTCCAAGCTCATAGGAGGTCAGTGAAGACAGAT")
-0.0875
>>> reported_measurement("CCTTACGGGTCAAGGATATAGCACGGGTGGTACG")
-0.392
>>> reported_measurement("CTCTAAAGGTCGGTTGAGGTGAGTATACGGATAA")
0.152
>>> reported_measurement("AGAATGAGGTTATTAAGATCAGGAAATTGCGGTC")
-0.00704
>>> reported_measurement("AGTCAAAGTTCAGGACGTGGTAACGTAAAGCACG")
0.114
>>> reported_measurement("GCAGACAGGTGAAACGCAGGTCACTCAGGGTGGC")
-0.88
>>> reported_measurement("CGAACTAGGTCATCCACGACAGTGAATACATTGA")
0.18
>>> reported_measurement("GTACCAAGGTGAATAGGTAGTTGATGAGTAGGCG")
-0.534
>>> reported_measurement("TCTAGGAGGCCAGAGGGTCACTCAAGAGGTACGG")
-1.15
>>> reported_measurement("GCTCGTAGGACAAGGTCAGAGCTTTGTCCGTAGA")
-0.639
>>> reported_measurement("ATCGAAAGGTCGACAAGGTGAGTATACACCGTTT")
0.522
>>> reported_measurement("CCTGCTAGGTCAATGGCCAGCTAAAGCAGCTCGC")
-0.454
>>> reported_measurement("CGTCCAAGGTCATAGGAGCTCAGTGAAGACAGAT")
0.584
>>> reported_measurement("CCGACTGGGGCATAAGGTTACTATAAGCCAGCCC")
-1.18
>>> reported_measurement("ACAGACAGGTGGTGAAGGTAACTCAGGCTATCAT")
-0.476
>>> reported_measurement("ATCCCTAGGTAACAAGTTCAGTGAAAGAGAGGAC")
0.823

Taken from the supplement of paper PMC6555819.
